// provenance: paper PMC8439657

assayed-system: Twin-Strep-tagged activated mTORC1 mutant A1459P (human)
protocol-details: SPR; Biacore T200, CM5 chip; Twin-Strep-tagged mTORC1 captured on Strep-Tactin XT; DEPTOR PDZ (305-409) injected 120 s, 300 s dissociation, 1:2 dilution series from 20 µM; 50 mM HEPES pH 7.5, 100 mM NaCl, 1 mM TCEP; equilibrium responses fit to one-site specific binding with a linear non-specific component
pKd: −log10 of the molar value.

| substance | assayed-system | pKd |
| --- | --- | --- |
| DEPTOR short-linker PDZ, residues 305-409 (from UniProt Q8TB45 305-409) (domain or fragment) | Twin-Strep-tagged activated mTORC1 mutant A1459P (human) | 6.22 |
